experiment: protein stability index of a GFP-peptide fusion (GPS, HEK-293T) (PSI 1-6); higher = more stable; conditions: treatment: MLN4924 1 uM, 8 h; c terminus: a fixed tail appended;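 also: 24-mer peptide tiles fused after GFP, lentivirally expressed, FACS-sorted into six equal bins by GFP/DsRed ratio, decoded by Illumina sequencing, PSI is the read-weighted mean bin number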
# protein stability index listing for each entry below
Parameter measured: protein stability index

INSERT INTO assay_data (chain_sequence, readout_value) VALUES
  ('CLRRCKRTLPAFQVPYPPRQLLRD [P3H4]', 2.27),
  ('EWLLDAPELPEGHLEDWLEKRAKR [ZMAT5]', 4.79),
  ('LEGVIDRYQQSKAAALKCQLCEKA [TRIM9]', 3.78),
  ('YANGGLNYSYRGYGALSSNLQPPA [NOL4L]', 2.94),
  ('HKKTTHKLNCDPSRIYKPQTRLKR [DFFB]', 4.22),
  ('FHYIPGTDILDLENQRENLEQPFL [PLEKHN1]', 3.09),
  ('AALCLEVTLKTAVDGPDLEMLTGQ [FKBP8]', 2.49),
  ('GCALTTFSVLEGEKNNHRAKDLRA [SOAT1]', 3.83),
  ('KSKLTYMCRVDLRGHMPEWYTKSF [DLC1]', 2.43),
  ('IMTVKEDQFSALGLDPCLLEDELD [SLC6A17]', 4.46),
  ('NTNPKEVQEMRNKIREQNLQDIKT [ADD1]', 5.11),
  ('ILELVVLEQFVAILPKELQTWVRD [ZNF24]', 2.45),
  ('NFADEDEAQAFRALVQEKIQKRNQ [WAS]', 4.62),
  ('RAIMAHMTVEEIYKDRQKFSEQVF [FLOT1]', 2.74),
  ('RLHNLYSTPRCAQQAALPRLSRRM [CBY2]', 2.55),
  ('FLTSRTRALLRRFPRMLLVDRLPG [ZSWIM9]', 2.41),
  ('GIIPYAGIDLAVYETLKNAWLQHY [SLC25A25]', 2.65),
  ('TGREMHGKNWSKLCKDCQVIDGRN [TPPP]', 3.49),
  ('KKLHKIQNKAQRQKDLIMKVENLT [TAF7L]', 3.37),
  ('SSSSRVLLRQQLMRAQAQEQERRE [TFE3]', 5.02),
  ('TEVVRDAVRKLKFARHIKKSEGQK [GULP1]', 3.85),
  ('AVMEHAESKMYATSPYSDPVVSMD [PTPRD]', 4.24),
  ('RTLPAFQVPYPPRQLLRDFQSRLP [P3H4]', 2.92),
  ('LGPAFRGLKGRTLYPAVSAVWGQC [SPSB2]', 2.16),
  ('IAVLPRYVEIRTFEPRLLVQSIEL [VPS39]', 2.88),
  ('AIDLNKKGKDNKHPMYRRLVHSAV [ZMYND11]', 2.92),
  ('DWGRTALHYAAASDMDRNKTILGN [ANKRD44]', 3.35);

====

test: protein stability index of a GFP-peptide fusion (GPS, HEK-293T) (PSI 1-6); higher = more stable; settings: treatment: MLN4924 1 uM, 8 h; c terminus: a fixed tail appended
protein stability index listing for selected sequences.
Parameter measured: protein stability index

INSERT INTO assay_data (chain_sequence, parameter_measured, readout_value) VALUES
  ('STSRHVMAPVMAHVDPEEPWSPCS [ADAMTS4]', 'protein stability index', 4.41),
  ('LEEEFDSDSGLSLDSSHSPSSLSS [NFE2L1]', 'protein stability index', 5.22),
  ('APVAEAWIPQAGPPELNYGATGEC [ZNF449]', 'protein stability index', 4.88),
  ('SAASGARFPLDSAQDPDVGTNTVS [PCDHGC5]', 'protein stability index', 5.2),
  ('QEAVPLGLGLEDADWTQGLPWRFE [TEX19]', 'protein stability index', 3.34),
  ('SNLLKAGFIRHTVNKITFSEQCYY [DVL3]', 'protein stability index', 2.39),
  ('VTFGNKQKVLGKALSLIRFPLMTI [BTBD1]', 'protein stability index', 2.4),
  ('SAEKCGPPPPIDNGDITSFLLSVY [CFHR2]', 'protein stability index', 2.33),
  ('TEPSGRVAKKTPTKRSTLIISGVS [C2CD2L]', 'protein stability index', 3.92),
  ('CTDKENALKLFPVQPCSAVHLLLK [FAM189A2]', 'protein stability index', 2.7),
  ('SAETGSPRLTMHYPCLEKPRIWSL [IRX6]', 'protein stability index', 2.22),
  ('LVYDVEVKSHLLDYVMTTLLFSDK [TRIP13]', 'protein stability index', 2.92),
  ('PKKISDLDHCANRVLMYGSELDAD [TPH1]', 'protein stability index', 4.47),
  ('SAEWFITAVGAILAGGLCVGIYAT [ACSBG2]', 'protein stability index', 3.18),
  ('SKARRKKIMIIICCVILGIVIAST [STX1A]', 'protein stability index', 2.67),
  ('EERKNEMTQVITRTQEEKLEHVRA [TRIM55]', 'protein stability index', 5.54),
  ('FRPGHLLANACLPVRTTNKISKQF [ZSWIM9]', 'protein stability index', 2.8),
  ('LMELCRLYHRADVEKVLRRWVDEE [EDARADD]', 'protein stability index', 2.4),
  ('VKLWKVSERDKRPEGYNLKDEEGR [PPP2R2B]', 'protein stability index', 4.34),
  ('SSNHGCQHECVNTDDSYSCHCLKG [MATN2]', 'protein stability index', 5.1),
  ('RVNEKEIVRLRTIGELLAPAAPFD [WSB1]', 'protein stability index', 3.5),
  ('FLFQKPGDKYEHHSYMGMRGFCAF [POMT2]', 'protein stability index', 1.99),
  ('LYILGNFMQLKCFSSQKLKCLSMF [PNLIPRP1]', 'protein stability index', 3.46),
  ('PPRGPLGQGAMFRLPTDSHFPYDL [NEUROD6]', 'protein stability index', 3.59),
  ('FLHSLVQFLFIYQLPFCGPNVIDN [OR4A15]', 'protein stability index', 3.48),
  ('PTLKKCEDVARPTQRLWDFTQSGP [GALNT9]', 'protein stability index', 4);

Entry source: the supplement of paper PMC10567573
